- tested on: Alpha-1A adrenergic receptor (Homo sapiens)
- assay notes: In vitro binding affinity against alpha-1A adrenergic receptor of human clones
property label: Ki (nM)
Answers are plain numbers, in nM.

Here are 3 compounds together with their reported answers.
(Q) Return Ki for the following compound: COC(=O)C1=C(C)NC(=O)N(C(=O)NCCCN2CCC3(CC2)OCc2ccccc23)C1c1ccc(F)c(F)c1 (centres undefined)
(A) 0.3

(Q) Return Ki for the following compound: COC(=O)C1=C(C)NC(=O)N(C(=O)NCCCN2CCC3(CC2)OC(=O)c2ccccc23)C1c1ccc(F)c(F)c1 (centres undefined)
(A) 7.9

(Q) Return Ki for the following compound: CCC1=C(C(N)=O)C(c2ccc(F)c(F)c2)N(C(=O)NCCCN2CCC(C(=O)OC)(c3ccccc3)CC2)C(=O)N1 (centres undefined)
(A) 0.2

--- query ---
(Q) Return Ki for the following compound: COC(=O)C1=C(C)NC(=O)N(C(=O)NCCCN2CCC(c3cc(C)cc(C)c3)(c3cc(C)cc(C)c3)CC2)C1c1ccc(F)c(F)c1 (centres undefined)
(A) 4.6

###

- tested on: Mu-type opioid receptor (Homo sapiens)
- Sequence (P35372 whole entry): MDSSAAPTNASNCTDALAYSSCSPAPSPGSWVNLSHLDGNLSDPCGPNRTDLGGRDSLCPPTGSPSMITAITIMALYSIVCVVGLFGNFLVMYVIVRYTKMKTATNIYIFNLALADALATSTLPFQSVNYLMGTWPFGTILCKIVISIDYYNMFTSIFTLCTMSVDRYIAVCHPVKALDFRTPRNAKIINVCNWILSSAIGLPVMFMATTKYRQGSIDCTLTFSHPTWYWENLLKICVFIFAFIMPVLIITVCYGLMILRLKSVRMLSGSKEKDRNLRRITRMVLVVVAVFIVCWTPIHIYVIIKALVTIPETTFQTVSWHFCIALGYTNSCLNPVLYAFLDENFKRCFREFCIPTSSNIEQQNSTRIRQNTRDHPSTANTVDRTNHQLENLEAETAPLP
property label: Ki (µM)
One number for each entry, in µM.

(Q) Identify measured Ki obtained with Mu-type opioid receptor (Homo sapiens) for CCC1=C(C(N)=O)C(c2ccc(F)c(F)c2)N(C(=O)NCCCN2CCC(C(=O)OC)(c3ccccc3)CC2)C(=O)N1 (stereo unspecified) .
(A) 4

###

- tested on: Alpha-1A adrenergic receptor (Homo sapiens, UniProt P35348)
- Sequence (P35348 whole entry): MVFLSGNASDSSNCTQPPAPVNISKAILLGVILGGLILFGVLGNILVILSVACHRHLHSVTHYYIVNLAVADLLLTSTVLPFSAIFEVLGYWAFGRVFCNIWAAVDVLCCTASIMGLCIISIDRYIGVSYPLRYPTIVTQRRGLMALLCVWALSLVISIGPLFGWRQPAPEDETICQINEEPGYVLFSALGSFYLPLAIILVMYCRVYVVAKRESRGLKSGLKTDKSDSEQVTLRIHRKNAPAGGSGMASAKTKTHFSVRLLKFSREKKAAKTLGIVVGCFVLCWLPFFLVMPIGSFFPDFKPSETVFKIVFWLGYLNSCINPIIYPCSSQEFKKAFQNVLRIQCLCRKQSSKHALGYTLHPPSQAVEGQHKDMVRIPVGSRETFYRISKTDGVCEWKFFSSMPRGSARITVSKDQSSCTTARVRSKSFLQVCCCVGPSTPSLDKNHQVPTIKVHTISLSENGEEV
property label: Ki (nM)
Give bare numbers, in nM.

(Q) Return Ki for the following compound: COC(=O)C1=C(C)NC(=O)N(C(=O)NCCCN2CCC3(CC2)C(=O)Oc2ccccc23)C1c1ccc(F)c(F)c1 (centres undefined)
(A) 4.5

(Q) Return Ki for the following compound: CCC1=C(C(N)=O)C(c2ccc(F)c(F)c2)N(C(=O)NCCC(C)N2CCC(C(=O)OC)(c3ccccc3)CC2)C(=O)N1 (stereo in doubt; 13)
(A) 4.2

# return Ki for each item in the list
1. COC(=O)C1=C(C)NC(=O)N(C(=O)NCCCN2CCC3(CCc4ccccc43)CC2)C1c1ccc(F)c(F)c1 (centres undefined)
2. CCC1=C(C(N)=O)C(c2ccc(F)cc2F)N(C(=O)NCCCN2CCC(C#N)(c3ccccc3)CC2)C(=O)N1 (centres undefined)

(A)
1.1
0.7

###

Record set of Ki for target or system Mu-type opioid receptor (Mus musculus, UniProt P42866).
Answers are plain numbers, in µM.

(Q) Identify measured Ki obtained with Mu-type opioid receptor (Mus musculus, UniProt P42866) for CCC1=C(C(N)=O)C(c2ccc(F)cc2F)N(C(=O)NCCCN2CCC(C#N)(c3ccccc3)CC2)C(=O)N1 (configuration not stated) .
Sequence (P42866 whole entry): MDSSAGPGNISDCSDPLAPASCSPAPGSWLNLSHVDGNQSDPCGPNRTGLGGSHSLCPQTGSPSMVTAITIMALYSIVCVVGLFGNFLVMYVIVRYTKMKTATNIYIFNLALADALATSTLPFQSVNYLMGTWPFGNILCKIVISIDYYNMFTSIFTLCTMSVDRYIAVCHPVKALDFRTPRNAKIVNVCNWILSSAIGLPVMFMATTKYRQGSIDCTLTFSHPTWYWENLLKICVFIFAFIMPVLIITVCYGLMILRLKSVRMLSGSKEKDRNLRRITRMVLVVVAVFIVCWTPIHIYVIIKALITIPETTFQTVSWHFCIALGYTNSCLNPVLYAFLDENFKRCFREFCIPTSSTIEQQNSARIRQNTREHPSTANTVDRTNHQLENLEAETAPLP
(A) 51

Continuing:
(Q) Identify measured Ki obtained with Mu-type opioid receptor (Mus musculus, UniProt P42866) for COCC1=C(C(=O)OC)C(c2ccc(F)c(F)c2)N(C(=O)NCCCN2CCC(C)(c3ccccc3)CC2)C(=O)N1 (configuration not stated) .
(A) 100

###

Consider the following compounds; for each one, report its Ki.
- tested on: Alpha-1D adrenergic receptor (Homo sapiens)
- Sequence (P25100 whole entry): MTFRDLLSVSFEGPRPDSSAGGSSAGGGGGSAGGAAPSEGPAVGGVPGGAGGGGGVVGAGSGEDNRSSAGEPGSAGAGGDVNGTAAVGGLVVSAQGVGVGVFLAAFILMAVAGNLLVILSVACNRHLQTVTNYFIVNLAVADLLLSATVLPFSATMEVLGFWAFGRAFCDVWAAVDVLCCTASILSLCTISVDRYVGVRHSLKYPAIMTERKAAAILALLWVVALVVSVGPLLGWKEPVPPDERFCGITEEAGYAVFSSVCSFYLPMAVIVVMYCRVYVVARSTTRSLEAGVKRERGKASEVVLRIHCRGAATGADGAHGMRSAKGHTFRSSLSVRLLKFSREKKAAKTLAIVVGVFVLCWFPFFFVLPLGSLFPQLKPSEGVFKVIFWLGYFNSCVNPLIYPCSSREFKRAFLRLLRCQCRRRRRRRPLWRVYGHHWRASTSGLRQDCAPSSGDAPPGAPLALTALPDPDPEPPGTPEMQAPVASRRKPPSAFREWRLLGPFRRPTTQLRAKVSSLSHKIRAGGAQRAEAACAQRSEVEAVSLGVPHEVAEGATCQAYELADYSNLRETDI
Numbers only, in nM.

(Q) Return Ki for the following compound: CCC1=C(C(N)=O)C(c2ccc(F)cc2F)N(C(=O)N2CCC(N3CCC(C(=O)OC)(c4ccccc4)CC3)CC2)C(=O)N1 (stereo not drawn)
(A) 14700

(Q) Return Ki for the following compound: COCC1=C(C(=O)OC)C(c2ccc(F)c(F)c2)N(C(=O)NCCCN2CCC(C)(c3ccccc3)CC2)C(=O)N1 (stereo not drawn)
(A) 640

--- query ---
(Q) Return Ki for the following compound: CCC1=C(C(N)=O)C(c2ccc(F)cc2F)N(C(=O)NCCCN2CCC(C(=O)OC)(c3ccccc3)CC2)C(=O)N1 (stereo not drawn)
(A) 340

###

- assay notes: Bioavailability in dog
- Assay type: ADME, organism-based, Canis lupus familiaris
- condition summary: in vivo
property label: bioavailability
Answer format reminder: number followed by unit.

(Q) Return bioavailability for the following molecule: CCC1=C(C(N)=O)C(c2ccc(F)c(F)c2)N(C(=O)NCCCN2CCC(C(=O)OC)(c3ccccc3)CC2)C(=O)N1 (configuration not stated)
(A) 26%

--- query ---
(Q) Return bioavailability for the following molecule: CCC1=C(C(N)=O)C(c2ccc(F)cc2F)N(C(=O)NCCCN2CCC(C#N)(c3ccccc3)CC2)C(=O)N1 (configuration not stated)
(A) 32%

###

- tested on: Alpha-1B adrenergic receptor (Homo sapiens, UniProt P35368)
- Sequence (P35368 whole entry): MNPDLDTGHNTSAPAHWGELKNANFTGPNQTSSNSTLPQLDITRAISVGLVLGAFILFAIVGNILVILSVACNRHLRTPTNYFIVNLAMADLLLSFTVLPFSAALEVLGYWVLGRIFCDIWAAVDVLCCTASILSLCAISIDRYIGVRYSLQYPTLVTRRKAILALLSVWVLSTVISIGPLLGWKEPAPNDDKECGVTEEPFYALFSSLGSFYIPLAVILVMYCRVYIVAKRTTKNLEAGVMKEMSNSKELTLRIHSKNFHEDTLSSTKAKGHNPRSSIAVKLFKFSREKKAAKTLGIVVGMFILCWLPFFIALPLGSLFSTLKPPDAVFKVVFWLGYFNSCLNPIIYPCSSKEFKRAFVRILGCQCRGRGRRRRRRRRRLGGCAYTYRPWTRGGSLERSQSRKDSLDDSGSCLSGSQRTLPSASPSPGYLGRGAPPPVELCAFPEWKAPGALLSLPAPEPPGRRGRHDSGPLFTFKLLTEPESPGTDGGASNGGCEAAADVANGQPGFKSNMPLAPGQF
property label: pKi
One number for each entry, as −log10 of the molar value.

Here are 10 compounds together with their reported answers.
(Q) Identify measured pKi obtained with Alpha-1B adrenergic receptor (Homo sapiens, UniProt P35368) for COCC1=C(C(=O)OC)C(c2cc(F)c(F)c(F)c2)N(C(=O)N2CCC(N3CCC(C(=O)OC)(c4ccccc4)CC3)CC2)C(=O)N1 (configuration not stated) .
(A) 5.50

(Q) Identify measured pKi obtained with Alpha-1B adrenergic receptor (Homo sapiens, UniProt P35368) for COC(=O)C1=C(C)NC(=O)N(CC(=O)NCCN2CCC(C(=O)OC)(c3ccccc3)CC2)C1c1ccc(F)c(F)c1 (configuration not stated) .
(A) 5.98

(Q) Identify measured pKi obtained with Alpha-1B adrenergic receptor (Homo sapiens, UniProt P35368) for COC(=O)C1=C(C)NC(=O)N(C(=O)NCCCN2CCC(OC(C)=O)(c3ccccc3)CC2)C1c1ccc(F)c(F)c1 (configuration not stated) .
(A) 6.15

(Q) Identify measured pKi obtained with Alpha-1B adrenergic receptor (Homo sapiens, UniProt P35368) for COC(=O)C1=C(C)NC(=O)N(C(=O)NCCCN2CCC(C#N)(c3ccccc3)CC2)C1c1ccc(F)c(F)c1 (configuration not stated) .
(A) 6.47

(Q) Identify measured pKi obtained with Alpha-1B adrenergic receptor (Homo sapiens, UniProt P35368) for CCC1=C(C(N)=O)C(c2ccc(F)c(F)c2)N(C(=O)NCCC(C)N2CCC(C(=O)OC)(c3ccccc3)CC2)C(=O)N1 (stereo in doubt; 13) .
(A) 5.83

(Q) Identify measured pKi obtained with Alpha-1B adrenergic receptor (Homo sapiens, UniProt P35368) for COC(=O)C1=C(C)NC(=O)N(C(=O)NCCCN2CCC3(CC2)OC(=O)Cc2ccccc23)C1c1ccc(F)c(F)c1 (configuration not stated) .
(A) 6.60

(Q) Identify measured pKi obtained with Alpha-1B adrenergic receptor (Homo sapiens, UniProt P35368) for COC(=O)C1=C(C)NC(=O)N(C(=O)NCCCN2CCC(C)(c3ccccc3)CC2)C1c1ccc(F)c(F)c1 (configuration not stated) .
(A) 6.57

(Q) Identify measured pKi obtained with Alpha-1B adrenergic receptor (Homo sapiens, UniProt P35368) for COC(=O)C1=C(C)NC(=O)N(C(=O)NCCCN2CCC(c3ccc(F)cc3)(c3ccc(F)cc3)CC2)C1c1ccc(F)c(F)c1 (configuration not stated) .
(A) 7.70

(Q) Identify measured pKi obtained with Alpha-1B adrenergic receptor (Homo sapiens, UniProt P35368) for COC(=O)C1=C(C)NC(=O)N(C(=O)NCCCN2CCC3(CCc4ccccc43)CC2)C1c1ccc(F)c(F)c1 (configuration not stated) .
(A) 6.39

(Q) Identify measured pKi obtained with Alpha-1B adrenergic receptor (Homo sapiens, UniProt P35368) for COC(=O)C1=C(C)NC(=O)N(CCCCCN2CCC(C(=O)OC)(c3ccccc3)CC2)C1c1ccc(F)c(F)c1 (configuration not stated) .
(A) 6.85

# return pKi for each item in the list
1. CCC1=C(C(N)=O)C(c2ccc(F)c(F)c2)N(C(=O)NCCC(C)N2CCC(C(=O)OC)(c3ccccc3)CC2)C(=O)N1 (stereo in doubt; 14)
2. COC(=O)C1=C(C)NC(=O)N(C(=O)NCCCN2CCC3(CC2)OCc2ccccc23)C1c1ccc(F)c(F)c1 (configuration not stated)
3. COC(=O)C1=C(C)NC(=O)N(C(=O)NCCCN2CCC3(CC2)OCCc2ccccc23)C1c1ccc(F)c(F)c1 (configuration not stated)
4. COC(=O)C1=C(C)NC(=O)N(C(=O)NCCCN2CCC(C(=O)OC)(c3ccccc3)CC2)C1c1ccc(F)c(F)c1 (configuration not stated)
5. CCC1=C(C(N)=O)C(c2ccc(F)cc2F)N(C(=O)NCCCN2CCC(C(=O)OC)(c3ccccc3)CC2)C(=O)N1 (configuration not stated)
6. COC(=O)C1=C(C)NC(=O)N(C(=O)NCCCN2CCC3(CC2)OC(=O)c2ccccc23)C1c1ccc(F)c(F)c1 (configuration not stated)

(A)
5.84
6.40
6.31
7.35
6.66
5.55
